All figures here come from ChEMBL document CHEMBL1142431.

test: Clearance in rat liver microsomes; format: ADME, Microsome; conditions: liver microsomes
measure.name: microsomal CLint (µL/min/mg)
Answers are plain numbers, in µL/min/mg.

For the 8 compounds below, give their microsomal CLint values.
1. O=C(c1cc2c(cc1F)OC(c1ccccc1)(c1ccccc1)O2)N1CCCCC1
2. O=C(c1cc2c(cc1F)OC(c1ccc(F)cc1F)(c1ccc(F)cc1F)O2)N1CCC(F)(F)CC1
3. COc1ccc(C2(c3ccc(Cl)cc3Cl)Oc3cc(F)c(C(=O)N4CCCCC4)cc3O2)cc1 (stereo not drawn)
4. O=C(c1cc2c(cc1F)OC(c1ccccc1)(c1ccccc1)O2)N1CCOCC1
5. O=S(=O)(c1ccc2c(c1)OC(c1ccccc1)(c1ccccc1)O2)N1CCCCC1
6. O=C(c1cc2c(cc1F)OC(c1ccc(F)cc1)(c1ccc(Cl)cc1Cl)O2)N1CCOCC1 (stereo not drawn)
7. O=S(=O)(c1cc2c(cc1F)OC(c1ccc(F)cc1)(c1ccc(Cl)cc1Cl)O2)N1CCOCC1 (stereo not drawn)
8. O=C(c1cc2c(cc1F)OC(c1ccc(F)cc1F)(c1ccc(F)cc1F)O2)N1CCOCC1

stdout:
1. 486
2. 5
3. 88
4. 272
5. 549
6. 22
7. 53
8. 30
